- Assayed target: INSR (Homo sapiens, UniProt P06213)
- Sequence (P06213 28-1382, species assumed): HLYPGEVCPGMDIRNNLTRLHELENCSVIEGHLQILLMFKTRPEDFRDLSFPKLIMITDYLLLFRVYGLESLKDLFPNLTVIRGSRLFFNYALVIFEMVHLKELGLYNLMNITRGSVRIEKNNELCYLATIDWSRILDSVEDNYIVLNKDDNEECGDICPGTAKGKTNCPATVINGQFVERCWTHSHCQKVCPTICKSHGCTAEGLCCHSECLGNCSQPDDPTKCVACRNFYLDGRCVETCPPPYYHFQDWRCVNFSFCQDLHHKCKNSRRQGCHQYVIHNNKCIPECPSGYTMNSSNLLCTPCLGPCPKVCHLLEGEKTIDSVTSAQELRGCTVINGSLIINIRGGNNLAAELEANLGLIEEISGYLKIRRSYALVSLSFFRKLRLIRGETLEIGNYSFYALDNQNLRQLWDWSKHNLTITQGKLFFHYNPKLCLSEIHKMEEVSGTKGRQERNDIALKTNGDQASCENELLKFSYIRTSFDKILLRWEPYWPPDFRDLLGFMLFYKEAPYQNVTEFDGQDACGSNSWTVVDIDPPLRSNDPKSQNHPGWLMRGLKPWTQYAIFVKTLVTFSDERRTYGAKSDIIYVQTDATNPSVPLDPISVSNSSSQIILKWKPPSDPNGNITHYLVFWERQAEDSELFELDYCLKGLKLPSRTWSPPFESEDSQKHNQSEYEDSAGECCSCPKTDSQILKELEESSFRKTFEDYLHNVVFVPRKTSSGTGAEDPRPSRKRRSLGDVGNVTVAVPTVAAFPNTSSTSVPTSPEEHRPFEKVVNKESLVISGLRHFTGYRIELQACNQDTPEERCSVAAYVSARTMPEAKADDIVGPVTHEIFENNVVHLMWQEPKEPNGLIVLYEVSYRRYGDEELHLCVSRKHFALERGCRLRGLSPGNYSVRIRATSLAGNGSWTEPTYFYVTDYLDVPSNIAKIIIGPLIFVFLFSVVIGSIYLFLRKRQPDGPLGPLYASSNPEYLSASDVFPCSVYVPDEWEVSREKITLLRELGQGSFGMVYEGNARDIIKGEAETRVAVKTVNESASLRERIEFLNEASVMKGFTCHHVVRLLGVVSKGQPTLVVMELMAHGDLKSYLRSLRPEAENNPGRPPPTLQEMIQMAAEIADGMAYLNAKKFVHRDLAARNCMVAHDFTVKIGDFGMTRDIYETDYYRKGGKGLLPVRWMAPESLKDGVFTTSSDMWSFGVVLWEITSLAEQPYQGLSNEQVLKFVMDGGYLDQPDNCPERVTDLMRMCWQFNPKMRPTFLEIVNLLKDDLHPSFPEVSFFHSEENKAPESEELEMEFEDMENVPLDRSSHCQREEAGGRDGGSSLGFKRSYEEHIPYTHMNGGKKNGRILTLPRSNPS

Smiles text | IC50
C=CC(=O)Nc1cc(Nc2nccc(-c3nn(C45CC(C4)C5)c4ccccc34)n2)c(OC)cc1N(C)CCN(C)C | ≥ 100 nM
C=CC(=O)Nc1cc(Nc2nccc(-c3cn(C45CC(C#N)(C4)C5)c4ccccc34)n2)c(OC)cc1N(C)CCN(C)C | ≥ 100 nM
C=CC(=O)Nc1cc(Nc2nccc(-c3cn(C45CC(C4)C5)c4ccccc34)n2)c(OC)cc1N(C)CCN(C)C | ≥ 100 nM

---

- Test system: A431 (WT)
- Protocol notes: EGFR cell proliferation assay (CellTiter-Glo), A431
- Assay type: cell-based
- Experimental conditions: Homo sapiens, A-431, 3-5 days of compound treatment
Quantity: IC50

Smiles text | Result
C=CC(=O)Nc1cc(Nc2nccc(-c3cn(C45CC(C4)C5)c4ccccc34)n2)c(OC)cc1N(C)CCNC | ≥ 300 nM
C=CC(=O)Nc1cc(Nc2nccc(-c3cn(C45CC(C#N)(C4)C5)c4ccccc34)n2)c(OC)cc1N(C)CCN(C)C | ≥ 300 nM
C=CC(=O)Nc1cc(Nc2nccc(-c3cn(C45CC(C4)C5)c4ccccc34)n2)c(OC)cc1N(C)CCN(C)C | ≥ 300 nM
C=CC(=O)Nc1cc(Nc2nccc(-c3cn(C)c4ccccc34)n2)c(OC)cc1N(C)C12CC(CN(C)C)(C1)C2 | ≥ 300 nM

---

- Assayed target: EGFR Wt (Homo sapiens, UniProt P00533)
- Sequence (P00533 25-1210): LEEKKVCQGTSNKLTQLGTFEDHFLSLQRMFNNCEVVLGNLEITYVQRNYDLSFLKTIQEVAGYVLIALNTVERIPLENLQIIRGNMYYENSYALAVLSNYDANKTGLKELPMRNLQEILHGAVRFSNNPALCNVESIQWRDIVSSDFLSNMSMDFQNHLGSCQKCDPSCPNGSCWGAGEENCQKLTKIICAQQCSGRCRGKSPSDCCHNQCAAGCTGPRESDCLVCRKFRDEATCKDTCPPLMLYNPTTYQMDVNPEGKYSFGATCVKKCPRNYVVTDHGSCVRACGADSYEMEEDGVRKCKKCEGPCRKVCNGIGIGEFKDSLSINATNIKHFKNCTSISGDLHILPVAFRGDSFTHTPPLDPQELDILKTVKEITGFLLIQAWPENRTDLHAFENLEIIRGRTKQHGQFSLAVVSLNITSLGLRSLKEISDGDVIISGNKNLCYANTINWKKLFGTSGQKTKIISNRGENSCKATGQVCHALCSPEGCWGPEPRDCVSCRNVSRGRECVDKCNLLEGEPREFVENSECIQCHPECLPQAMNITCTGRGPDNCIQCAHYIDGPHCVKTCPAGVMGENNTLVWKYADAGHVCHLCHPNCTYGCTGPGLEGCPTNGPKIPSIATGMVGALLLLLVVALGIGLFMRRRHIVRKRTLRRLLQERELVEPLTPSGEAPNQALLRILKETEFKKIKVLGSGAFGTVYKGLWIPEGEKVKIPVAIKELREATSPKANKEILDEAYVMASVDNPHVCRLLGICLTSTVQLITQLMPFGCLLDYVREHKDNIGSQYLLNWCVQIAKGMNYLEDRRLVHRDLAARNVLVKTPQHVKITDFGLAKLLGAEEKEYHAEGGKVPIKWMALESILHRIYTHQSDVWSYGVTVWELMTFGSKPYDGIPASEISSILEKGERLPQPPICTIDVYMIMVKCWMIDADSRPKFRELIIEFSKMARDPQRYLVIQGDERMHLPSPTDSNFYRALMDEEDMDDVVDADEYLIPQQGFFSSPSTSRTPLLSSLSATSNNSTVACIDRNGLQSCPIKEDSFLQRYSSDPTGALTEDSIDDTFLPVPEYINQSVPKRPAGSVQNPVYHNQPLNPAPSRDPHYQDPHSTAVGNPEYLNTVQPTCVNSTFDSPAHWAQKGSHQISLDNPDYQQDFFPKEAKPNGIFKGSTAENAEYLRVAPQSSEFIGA
pIC50: −log10 of the molar value.
Quantity: pIC50

Compound | Quantity | Result
C=CC(=O)Nc1cc(Nc2nccc(-c3cn(C45CC(C4)C5)c4ccccc34)n2)c(OC)cc1N(C)CCNC [Example 8] | pIC50 | 7.00 to 8.00
